Measured values drawn from patent US9963445B2 for this set.

System: Amaranthus retroflexus
Assay: Post-emergence herbicidal activity, glasshouse pot test
Format: in vivo
Parameters: key: 0 = no damage to plant, 5 = total damage to plant
Details: Application post-emergence, rate 1000 g/ha, evaluated after 13 days
Overview of recorded AMARE herbicidal damage score for various molecules

>  <molecule>
CC1=C(Cl)C(=O)N(c2cc(C(F)(F)F)c(C(=O)OC(C)C)cn2)C1O (centres unmarked) [AF92]

>  <AMARE herbicidal damage score>
5

$$$$
>  <molecule>
CC1=C(Br)C(=O)N(c2cc(C(C)(C)C#N)ncn2)C1O (centres unmarked) [CG3]

>  <AMARE herbicidal damage score>
5

$$$$
>  <molecule>
CC1=C(Cl)C(=O)N(c2cc(C(F)(F)F)c(-c3ccc(C#N)cc3)cn2)C1O (centres unmarked) [AF93]

>  <AMARE herbicidal damage score>
5

$$$$
>  <molecule>
COc1nnc(N2C(=O)C(Cl)=C(C)C2O)cc1C (centres unmarked) [BF6]

>  <AMARE herbicidal damage score>
5

$$$$
>  <molecule>
CC1=C(Cl)C(=O)N(c2nccc(C(F)(F)F)c2F)C1O (centres unmarked) [AF5]

>  <AMARE herbicidal damage score>
5

$$$$
>  <molecule>
CC1=C(Cl)C(=O)N(c2nccc(C(C)(C)C#N)n2)C1O (centres unmarked) [DF5]

>  <AMARE herbicidal damage score>
5

$$$$
>  <molecule>
COC1=C(C)C(O)N(c2cc(C)c(-c3cnn(C)c3)nn2)C1=O (centres unmarked) [BI33]

>  <AMARE herbicidal damage score>
4

$$$$
>  <molecule>
COC1=C(C)C(O)N(c2ccc(C(=O)NC(C)(C)C)nn2)C1=O (centres unmarked) [BI6]

>  <AMARE herbicidal damage score>
5

$$$$
>  <molecule>
COC1=C(C)C(O)N(c2cc(C(C)(C)F)c(C)nn2)C1=O (centres unmarked) [BI16]

>  <AMARE herbicidal damage score>
5

$$$$
>  <molecule>
CC1=C(Cl)C(=O)N(c2ccc(C(C)(C)C#N)cn2)C1O (centres unmarked) [AF102]

>  <AMARE herbicidal damage score>
5

$$$$
>  <molecule>
CC1=C(Cl)C(=O)N(c2cc(N(C)C)ncn2)C1O (centres unmarked) [CF20]

>  <AMARE herbicidal damage score>
5

$$$$
>  <molecule>
CC1=C(Cl)C(=O)N(c2cc(C3CC3)ncn2)C1O (centres unmarked) [CF4]

>  <AMARE herbicidal damage score>
5

$$$$
>  <molecule>
CCOc1nc(N2C(=O)C(Cl)=C(C)C2O)ncc1C#N (centres unmarked) [DF4]

>  <AMARE herbicidal damage score>
0

$$$$
>  <molecule>
COC1=C(C)C(O)N(c2cc(C)c(C#N)nn2)C1=O (centres unmarked) [BI5]

>  <AMARE herbicidal damage score>
0

$$$$
